- Subject of test: Syk (356-635 amino acids) catalytic domain (Homo sapiens (Human))
- Experiment notes: Inhibition of enzymatic Syk kinase activity (radiometric)
- Assay type: biochemical
- Stated conditions: read-out: IC50 Syk
pIC50: −log10 of the molar value.
Measured pIC50 of individual entries

Molecule: O=c1[nH]ncc2nc(N3CCCCCC3)nc(Nc3ccc(OCCCN4CCNCC4)cc3)c12
Subject of test: Syk (356-635 amino acids) catalytic domain (Homo sapiens (Human))
pIC50: > 7.30

Molecule: N#CCC1CCN(c2nc(Nc3ccc(N4CCC(CCC(=O)O)CC4)cc3)c3c(=O)[nH]ncc3n2)CC1
Subject of test: Syk (356-635 amino acids) catalytic domain (Homo sapiens (Human))
pIC50: > 8.00

Molecule: CC(C)(CO)N1CCN(c2ccc(Nc3nc(N4CCCCCC4)nc4cn[nH]c(=O)c34)cc2)CC1
Subject of test: Syk (356-635 amino acids) catalytic domain (Homo sapiens (Human))
pIC50: > 8.00

Molecule: O=C(O)CC1CCN(CCCOc2ccc(Nc3nc(N4CCCCCC4)nc4cn[nH]c(=O)c34)cc2)CC1
Subject of test: Syk (356-635 amino acids) catalytic domain (Homo sapiens (Human))
pIC50: > 7.00

I have this molecule here, N#CCC1CCN(c2nc(Nc3ccc4c(c3)OCO4)c3c(=O)[nH]ncc3n2)CC1 , and I need its recorded pIC50.
< 7.00

I have this molecule here, O=C(O)CC1CCC(c2ccc(Nc3nc(-c4ccccc4)nc4cn[nH]c(=O)c34)cc2)CC1 (stereo not drawn) , and I need its recorded pIC50.
> 7.30

###

- Subject of test: JAK2 (Homo sapiens (Human), UniProt O60674)
- Sequence (O60674 808-1132): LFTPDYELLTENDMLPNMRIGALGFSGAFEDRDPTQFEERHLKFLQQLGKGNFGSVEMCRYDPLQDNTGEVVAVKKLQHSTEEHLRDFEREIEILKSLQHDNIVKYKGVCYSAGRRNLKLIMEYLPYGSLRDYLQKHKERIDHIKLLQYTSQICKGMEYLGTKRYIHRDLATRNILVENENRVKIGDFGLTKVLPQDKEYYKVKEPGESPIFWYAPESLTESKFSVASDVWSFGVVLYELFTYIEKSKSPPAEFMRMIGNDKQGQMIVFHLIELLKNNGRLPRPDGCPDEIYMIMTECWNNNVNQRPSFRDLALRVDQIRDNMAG
- Experiment notes: Inhibition of enzymatic JAK2 kinase activity (TR-FRET)
- Type: biochemical
- Stated conditions: read-out: IC50 JAK
Counter-ions that a name gives are not always drawn.
Measure name: IC50

Below are worked cases with known answers.
Compound: O=c1[nH]ncc2nc(N3CCCCCC3)nc(Nc3ccc(CCN4CCNCC4)cc3)c12
Measure name: IC50
Recorded measurement: < 0.01 µM
--
Compound: O=c1[nH]ncc2nc(N3CCCCCC3)nc(Nc3ccc(N4CCC(Cc5nn[nH]n5)CC4)nc3)c12
Measure name: IC50
Recorded measurement: < 0.01 µM
--
Compound: O=c1[nH]ncc2nc(N3CCCCC3)nc(Nc3ccc(CN4CCNCC4)cc3)c12 [Example 30, hydrochloride]
Measure name: IC50
Recorded measurement: < 0.05 µM

Form: Entry = N#CCC1CCN(c2nc(Nc3ccc4[nH]nnc4c3)c3c(=O)[nH]ncc3n2)CC1 | System = JAK2 (Homo sapiens (Human), UniProt O60674) | IC50 = ____
< 0.05 µM

Form: Entry = O=C(O)CN1CCN(c2ccc(Nc3nc(-c4ccccc4)nc4cn[nH]c(=O)c34)cc2)CC1 | System = JAK2 (Homo sapiens (Human), UniProt O60674) | IC50 = ____
< 0.01 µM

Form: Entry = O=C(O)C1CC12CCN(c1ccc(Nc3nc(-c4ccccc4)nc4cn[nH]c(=O)c34)cc1)CC2 (stereo not shown) [Example 22] | System = JAK2 (Homo sapiens (Human), UniProt O60674) | IC50 = ____
< 0.05 µM

Form: Entry = O=c1[nH]ncc2nc(N3CCCCCC3)nc(Nc3ccc(CCCO)cc3)c12 | System = JAK2 (Homo sapiens (Human), UniProt O60674) | IC50 = ____
< 0.01 µM

Form: Entry = N#CCC1CCN(c2nc(Nc3ccc(N4CCC(CO)CC4)cc3)c3c(=O)[nH]ncc3n2)CC1 | System = JAK2 (Homo sapiens (Human), UniProt O60674) | IC50 = ____
< 0.01 µM

Form: Entry = N#CCC1CCN(c2nc(Nc3ccc(N4CCC(Cc5nn[nH]n5)CC4)nc3)c3c(=O)[nH]ncc3n2)CC1 | System = JAK2 (Homo sapiens (Human), UniProt O60674) | IC50 = ____
< 0.01 µM

Form: Entry = O=C(O)C1CCN(CCOc2ccc(Nc3nc(N4CCCCCC4)nc4cn[nH]c(=O)c34)cc2)CC1 | System = JAK2 (Homo sapiens (Human), UniProt O60674) | IC50 = ____
< 0.05 µM

Form: Entry = N#CCC(=O)N1CCN(c2ccc(Nc3nc(N4CCCCCC4)nc4cn[nH]c(=O)c34)cc2)CC1 | System = JAK2 (Homo sapiens (Human), UniProt O60674) | IC50 = ____
< 0.01 µM

Form: Entry = O=c1[nH]ncc2nc(N3CCCCCC3)nc(Nc3ccc(N4CCCC(O)C4)cc3)c12 (stereo not shown) | System = JAK2 (Homo sapiens (Human), UniProt O60674) | IC50 = ____
< 0.01 µM

Form: Entry = CC(C)(C(=O)O)C1CCN(c2ccc(Nc3nc(N4CCCCCC4)nc4cn[nH]c(=O)c34)cc2)CC1 | System = JAK2 (Homo sapiens (Human), UniProt O60674) | IC50 = ____
< 0.01 µM
